- Test system: MCF10A
- test.details: SRB antiproliferative/antigrowth assay, non-cancer cells
- Assay type: cell-based, human
- experimental.setup: Homo sapiens, MCF-10A, 48 h, SRB, 48 h post-treatment, non-cancer breast epithelial cells; read-out: GI50 MCF10A
assay.readout: GI50 (µM)
Response body: numeric value in µM, unit text excluded.

Solved entries (count: 2):
>  <substance.smiles>
COC(=O)c1sccc1S(=O)(=O)NCCCNc1ccnc2cc(Cl)ccc12

>  <result.unit>
µM

>  <GI50>
16.5

$$$$
>  <substance.smiles>
O=S(=O)(c1ccc(-c2ccccc2)cc1)N1CCN(c2ccnc3cc(C(F)(F)F)ccc23)CC1

>  <result.unit>
µM

>  <GI50>
15.5

$$$$

Q: Given CS(=O)(=O)NCCCNc1ccnc2cc(C(F)(F)F)ccc12 , state its recorded GI50.
Result: 85

Q: Given O=[N+]([O-])c1cccc(S(=O)(=O)NCCCNc2ccnc3cc(Cl)ccc23)c1 , state its recorded GI50.
Result: 31.1

Q: Given COC(=O)c1sccc1S(=O)(=O)N1CCN(c2ccnc3cc(C(F)(F)F)ccc23)CC1 , state its recorded GI50.
Result: 15.8

Q: Given COC(=O)c1sccc1S(=O)(=O)NCCCNc1ccnc2cc(C(F)(F)F)ccc12 , state its recorded GI50.
Result: 14.4

Q: Given CN(C)c1cccc2c(S(=O)(=O)N3CCN(c4ccnc5cc(C(F)(F)F)ccc45)CC3)cccc12 , state its recorded GI50.
Result: 15.4

Q: Given O=[N+]([O-])c1cccc(S(=O)(=O)N2CCN(c3ccnc4cc(C(F)(F)F)ccc34)CC2)c1 , state its recorded GI50.
Result: 15.4

Q: Given Cc1ccc(S(=O)(=O)N2CCN(c3ccnc4cc(Cl)ccc34)CC2)cc1 , state its recorded GI50.
Result: 44.4
